Hey, just so you know, these numbers are from the supplement of paper PMC10065799.

Biological target: EPHB1 (UniProt P54762)
Sequence (P54762 whole entry, looked up): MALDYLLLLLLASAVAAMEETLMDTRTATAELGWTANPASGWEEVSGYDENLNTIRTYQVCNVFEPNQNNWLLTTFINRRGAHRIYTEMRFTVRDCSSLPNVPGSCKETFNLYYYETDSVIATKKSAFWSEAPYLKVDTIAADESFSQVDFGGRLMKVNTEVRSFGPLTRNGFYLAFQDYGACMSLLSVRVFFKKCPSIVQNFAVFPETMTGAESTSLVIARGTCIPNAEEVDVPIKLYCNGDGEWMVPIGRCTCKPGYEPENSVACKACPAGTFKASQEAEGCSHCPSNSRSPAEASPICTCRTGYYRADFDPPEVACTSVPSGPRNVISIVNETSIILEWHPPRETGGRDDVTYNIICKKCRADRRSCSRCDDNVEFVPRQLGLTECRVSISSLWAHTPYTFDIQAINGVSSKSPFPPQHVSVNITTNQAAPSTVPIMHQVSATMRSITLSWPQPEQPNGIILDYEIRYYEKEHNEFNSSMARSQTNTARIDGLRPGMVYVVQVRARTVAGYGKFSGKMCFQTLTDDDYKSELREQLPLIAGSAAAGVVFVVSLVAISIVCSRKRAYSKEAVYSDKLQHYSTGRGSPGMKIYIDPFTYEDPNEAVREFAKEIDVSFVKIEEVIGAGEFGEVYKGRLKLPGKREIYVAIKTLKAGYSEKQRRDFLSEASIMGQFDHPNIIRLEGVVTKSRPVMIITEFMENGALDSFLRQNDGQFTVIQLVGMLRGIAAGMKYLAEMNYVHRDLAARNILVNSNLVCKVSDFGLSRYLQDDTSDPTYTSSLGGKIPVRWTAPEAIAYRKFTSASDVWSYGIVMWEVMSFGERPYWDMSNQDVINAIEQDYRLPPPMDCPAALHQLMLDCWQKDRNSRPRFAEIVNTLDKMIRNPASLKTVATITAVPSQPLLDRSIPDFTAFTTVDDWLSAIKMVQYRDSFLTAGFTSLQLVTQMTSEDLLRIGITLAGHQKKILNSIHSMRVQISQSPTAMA
Experiment: phosphorylation enrichment, bacterial display (enrichment ratio); higher = better substrate or ligand; peptides without Tyr show the background;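 note: 11-residue human phosphosite peptides and single-mutation variants displayed on the E. coli surface, counted by deep sequencing, each peptide's frequency after selection divided by its frequency in the unselected input library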;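 note: frequency after pTyr selection over input frequency; kinase dosed for 20-30% of maximal phosphorylation in three min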
Classes (phosphorylation enrichment): zone 1 (below 0.4), zone 2 (0.4 to below 0.8), zone 3 (0.8 or more)

> print(dat)
                               chain   group
 1       RTTKTYFPHFD [HBA1_Y43_P38R]  zone 3
 2    HNLNYYKKTTN [FGFR3_Y648_D646N]  zone 1
 3       RLLRGHDQFAF [HLA-B_Y137_YF]  zone 1
 4    LTTEVYFPSIK [C5orf64_Y60_A57T]  zone 2
 5  LVMFIYAISGM [SCN1A_Y1684_F1687S]  zone 3
 6    NQNIGYELGHR [KCNN3_Y268_K269E]  zone 2
 7     DIPIRYSIMGV [CDH4_Y205_T208M]  zone 2
 8  QRHFVYFFSFL [PTEN_Y176_R173H_YF]  zone 3
 9          ETSHNYHKFDS [MATR3_Y243]  zone 2
10     RLDGEYFTLQI [TP53_Y327_P322R]  zone 2
11      GKPENYRRLDI [VHL_Y175_V170G]  zone 1
12  CFVFFYSFLLK [PTEN_Y178_R173C_YF]  zone 2
13          VASIFYTLVIP [OR8K3_Y277]  zone 3

----------
Target: Fyn (UniProt P06241)
Sequence (P06241 whole entry, looked up): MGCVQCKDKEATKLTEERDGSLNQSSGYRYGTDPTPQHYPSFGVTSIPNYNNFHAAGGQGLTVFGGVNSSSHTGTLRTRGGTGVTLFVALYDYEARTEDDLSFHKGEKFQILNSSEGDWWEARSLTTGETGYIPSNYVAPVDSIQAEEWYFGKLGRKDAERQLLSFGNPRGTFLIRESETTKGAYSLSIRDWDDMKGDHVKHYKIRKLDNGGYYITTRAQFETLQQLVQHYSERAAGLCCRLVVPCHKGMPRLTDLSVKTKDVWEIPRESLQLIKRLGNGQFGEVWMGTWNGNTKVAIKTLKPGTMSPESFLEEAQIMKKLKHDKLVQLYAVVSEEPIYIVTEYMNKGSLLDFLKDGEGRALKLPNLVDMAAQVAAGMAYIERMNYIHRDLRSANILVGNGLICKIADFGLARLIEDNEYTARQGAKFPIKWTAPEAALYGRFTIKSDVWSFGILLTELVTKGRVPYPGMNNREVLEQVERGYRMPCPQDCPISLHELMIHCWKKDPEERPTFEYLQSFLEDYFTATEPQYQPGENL
Test: phosphorylation enrichment, bacterial display (enrichment ratio); higher = better substrate or ligand; peptides without Tyr show the background
# phosphorylation enrichment >= 0.6 gives rule met, anything below gives rule not met

> print(dat)
                                chain         group
 1   KRTFEYEAEKN [DENND2B_Y396_D399E]  rule not met
 2       RLNCIYYKDQT [RS1_Y165_W163C]      rule met
 3            QDGYSYPSRQM [LDLR_Y847]      rule met
 4             FTRNYYVRAVL [CYBA_Y88]  rule not met
 5          DAGTDYVGISR [FREM2_Y2061]  rule not met
 6         GGYNNYGYGND [HNRNPH3_Y159]      rule met
 7    GVRLFYRVRES [RB1_Y454_M457R_YF]  rule not met
 8         NTFEKYWPFFQ [GATM_Y103_YF]      rule met
 9       GFSRHYEDGFP [CTNND1_Y217_YF]  rule not met
10     GLQDEYDFKCK [STAT1_Y170_D165G]  rule not met
11  DFSLKYPTDIP [APC_Y1183_A1184P_YF]  rule not met
12      SMGHRYIEVFR [HNRNPF_Y82_K87R]  rule not met
13           YVKEPYIQSRF [HIPK4_Y175]  rule not met
14    PPSLSYLSFEG [EXOSC3_Y143_A139P]  rule not met
15     LGLDECLDKLK [FMNL2_Y352_Y352C]      rule met
16            ISTAGYSIPEL [EDAR_Y406]  rule not met
17      QKMADYSNKLH [PDPR_Y104_Y109H]  rule not met
18          VVEDGYEFFAK [PPP1CB_Y254]  rule not met
19    GKTQQYECKWF [BCR_Y751_D752E_YF]  rule not met
20     RFLRGYHQDAY [HLA-A_Y137_R138H]      rule met
21             PPVVNYEEDAR [FER_Y402]      rule met
22        GLRYGYGVLGG [KRTAP20-2_Y15]  rule not met
23          PVADPYDQSFE [MAPK14_Y323]      rule met
24           SSSNPYSTVTM [ACTN2_Y599]      rule met
25     CWAVKYLQMVG [AVPR2_Y117_R113W]  rule not met
26  RENGPYFASFP [GDAP2_Y487_T489A_YF]  rule not met
27        TYGVLYKARNK [CDK2_Y19_V18L]      rule met

----------
Quick reference for phosphorylation enrichment among some sequences
Target: FGFR3 (UniProt P22607)
Sequence (P22607 whole entry, looked up): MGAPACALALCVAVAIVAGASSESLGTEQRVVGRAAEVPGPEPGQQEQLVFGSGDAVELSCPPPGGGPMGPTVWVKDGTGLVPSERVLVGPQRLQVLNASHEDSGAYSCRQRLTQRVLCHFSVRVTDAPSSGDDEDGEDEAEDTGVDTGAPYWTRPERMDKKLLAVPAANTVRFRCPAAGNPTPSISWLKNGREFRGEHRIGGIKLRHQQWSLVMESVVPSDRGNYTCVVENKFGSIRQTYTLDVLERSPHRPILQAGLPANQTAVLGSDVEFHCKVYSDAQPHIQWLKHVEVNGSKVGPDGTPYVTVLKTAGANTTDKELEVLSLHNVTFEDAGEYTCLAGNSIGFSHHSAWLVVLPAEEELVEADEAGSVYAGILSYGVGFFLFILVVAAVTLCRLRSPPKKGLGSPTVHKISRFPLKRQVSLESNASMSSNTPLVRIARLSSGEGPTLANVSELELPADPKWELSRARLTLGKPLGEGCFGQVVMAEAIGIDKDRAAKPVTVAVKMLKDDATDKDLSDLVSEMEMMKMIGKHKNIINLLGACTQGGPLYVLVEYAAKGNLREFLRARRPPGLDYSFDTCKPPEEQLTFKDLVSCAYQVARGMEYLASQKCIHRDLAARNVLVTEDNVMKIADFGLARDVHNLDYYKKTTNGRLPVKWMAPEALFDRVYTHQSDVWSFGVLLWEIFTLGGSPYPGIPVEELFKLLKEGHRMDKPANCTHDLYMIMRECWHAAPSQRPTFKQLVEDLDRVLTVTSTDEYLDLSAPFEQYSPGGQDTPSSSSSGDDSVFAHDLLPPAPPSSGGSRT
Assay: phosphorylation enrichment, bacterial display (enrichment ratio); higher = better substrate or ligand; peptides without Tyr show the background
experimental_endpoint: phosphorylation enrichment

> print(dat)
                                chain  value.measured
 1       GKPENYRRLDI [VHL_Y175_V170G]           0.376
 2     PSPMPYAFCQM [FOXL2_Y215_S217F]            2.31
 3       LAIELYVVVCK [RHO_Y136_R135L]            1.64
 4           RQQQDYWLIDV [ANPEP_Y600]            17.4
 5     GVYSRHFTTYD [CLCA1_Y661_Y661H]           0.508
 6   EAVSIYQFFGQ [CBLC_Y402_H405Y_YF]            2.67
 7      NIISFYLSRDP [CTSD_Y232_F229I]           0.773
 8  ISRASYFRKGG [ALK_Y1282_Y1278S_YF]           0.388
 9  ASNFNYFFHRE [KCNA1_Y413_V408A_YF]           0.748
10           PPNSPYIGSSP [KCNT1_Y740]           0.362
11                        KPGVNYYFQVS            2.05
12     PFQGAYLKINK [MYO1B_Y967_E969K]           0.909
13     HAEERYGKELV [PSTPIP1_Y53_Q48H]            1.02
14     PEFMVYKPQME [CCRL2_Y170_V168M]           0.867
15           KAALSYVSEIG [BPIFB2_Y36]           0.558
16   HRDSSYFWEIE [RAF1_Y340_Q335H_YF]           0.984
17         YGPPQYNIQYS [ERBB2IP_Y977]           0.557
18         KRGASYILKLA [SERPINB1_Y84]            0.76
19         ETKKQYDSFTF [TMED3_Y85_YF]           0.643
20        GLGGVYGGASG [KRT8_Y54_G53V]            0.52
21   GRTNICKNKKD [SLC26A3_Y520_Y520C]           0.911
22     LGGAMYYLEAD [PKHD1_Y452_E457D]             1.6
23            NKYVAYIESQG [KDM4B_Y34]           0.625
24  SIKDKYLTALF [KCNH2_Y611_V612L_YF]           0.572
25       CEHRGSLYLAI [TEK_Y897_Y897S]           0.847
26      HEVHIYENSGA [ARPC1B_Y35_K37N]           0.892
27          MLNTNYHLPPS [MT-ATP8_Y33]            2.43
28             ALHRPYGCDVE [ABL2_Y80]           0.531
29            CERLPYDASKW [FLT1_Y815]           0.688

----------
Molecular target: FGFR3 (UniProt P22607)
Assay: phosphorylation enrichment, bacterial display (enrichment ratio); higher = better substrate or ligand; peptides without Tyr show the background
Values of phosphorylation enrichment greater than or equal to 0.6 map to criterion met; values below map to criterion not met.

> print(dat)
                                chain              group
 1     RTMPDYTSFNT [EPHB2_Y912_I909M]      criterion met
 2          TLERHYEELQA [SPTBN2_Y834]      criterion met
 3     PIPAAYNKYDQ [CDC73_Y290_R292K]  criterion not met
 4           EAEALYQTKFQ [KRT73_Y325]      criterion met
 5       VDLIVYLWTNP [TK2_Y181_R183W]      criterion met
 6   FFTEEYVRAHP [DOCK2_Y1555_D1558A]      criterion met
 7    HSPLRYTSILT [OR51B6_Y130_R125H]      criterion met
 8  GHNDVYISKHV [GRIN2A_Y1423_E1426K]  criterion not met
 9    FVSIVCNDSGE [TSC2_Y1650_Y1650C]      criterion met
10        RTTKTYFPHFD [HBA1_Y43_P38R]      criterion met
11       KKYPDYIQSAM [SGMS2_Y59_I62S]  criterion not met
12      PLYGEYFTLQI [TP53_Y327_D324Y]      criterion met
13          VAFVYYKSIGP [ADGRL4_Y302]      criterion met
14      NQELIYEGQRL [TBK1_Y354_R357Q]      criterion met
15       MARDIYQASYY [LTK_Y672_R673Q]      criterion met
16       GFSRHYEDGFP [CTNND1_Y217_YF]  criterion not met
17      ADMETYLLEKS [MYH7_Y266_I263M]  criterion not met
18            SYKNKYGMVAQ [APOB_Y276]  criterion not met
19    FADIAYNFRHA [PAH_Y166_G171A_YF]  criterion not met
20  LNPDGYKKAFE [CPXM2_Y427_E428K_YF]      criterion met
21         ARAFIYAIIPA [ACKtide_2014]      criterion met
22           QLAPQYTYAQG [FLNA_Y1761]      criterion met
23        VRFMAYTDETC [F8_Y450_F455C]      criterion met
24     DPAFGYEDFTR [SESN2_Y323_T320A]      criterion met
25       HKNNNYEPSLF [BRCA2_Y57_N60S]      criterion met
26   AKLVQYFMEHH [PTPN11_Y80_E76K_YF]      criterion met
27         VYLGAYDRFLP [SLC22A5_Y486]      criterion met
